Just for reference, paper PMC3944532 is where these values come from.

# TARGET OR TEST SYSTEM: UniProt:Q9UBN7
# EXPERIMENTAL PROTOCOL: HDAC inhibition assay, class II B, fluorogenic peptide RHKK(Ac)AMC
# Type: biochemical
# ASSAY SETUP: curve fit printed in the picture of Figure 6; read-out: HDAC 6: EC50
EXPERIMENTAL ENDPOINT: IC50 (µM)
Answers are plain numbers, in µM.

The compound identified as C=C1CC[C@@H]2O[C@@]2(C)CC[C@H](/C(=C/CC2OC2(C)C)CO)[C@H]1C(=O)OC (relative stereo) registered its IC50 at 80.9

---

# TARGET OR TEST SYSTEM: HDAC6 (Homo sapiens, UniProt Q9UBN7)
# Sequence (Q9UBN7 whole entry): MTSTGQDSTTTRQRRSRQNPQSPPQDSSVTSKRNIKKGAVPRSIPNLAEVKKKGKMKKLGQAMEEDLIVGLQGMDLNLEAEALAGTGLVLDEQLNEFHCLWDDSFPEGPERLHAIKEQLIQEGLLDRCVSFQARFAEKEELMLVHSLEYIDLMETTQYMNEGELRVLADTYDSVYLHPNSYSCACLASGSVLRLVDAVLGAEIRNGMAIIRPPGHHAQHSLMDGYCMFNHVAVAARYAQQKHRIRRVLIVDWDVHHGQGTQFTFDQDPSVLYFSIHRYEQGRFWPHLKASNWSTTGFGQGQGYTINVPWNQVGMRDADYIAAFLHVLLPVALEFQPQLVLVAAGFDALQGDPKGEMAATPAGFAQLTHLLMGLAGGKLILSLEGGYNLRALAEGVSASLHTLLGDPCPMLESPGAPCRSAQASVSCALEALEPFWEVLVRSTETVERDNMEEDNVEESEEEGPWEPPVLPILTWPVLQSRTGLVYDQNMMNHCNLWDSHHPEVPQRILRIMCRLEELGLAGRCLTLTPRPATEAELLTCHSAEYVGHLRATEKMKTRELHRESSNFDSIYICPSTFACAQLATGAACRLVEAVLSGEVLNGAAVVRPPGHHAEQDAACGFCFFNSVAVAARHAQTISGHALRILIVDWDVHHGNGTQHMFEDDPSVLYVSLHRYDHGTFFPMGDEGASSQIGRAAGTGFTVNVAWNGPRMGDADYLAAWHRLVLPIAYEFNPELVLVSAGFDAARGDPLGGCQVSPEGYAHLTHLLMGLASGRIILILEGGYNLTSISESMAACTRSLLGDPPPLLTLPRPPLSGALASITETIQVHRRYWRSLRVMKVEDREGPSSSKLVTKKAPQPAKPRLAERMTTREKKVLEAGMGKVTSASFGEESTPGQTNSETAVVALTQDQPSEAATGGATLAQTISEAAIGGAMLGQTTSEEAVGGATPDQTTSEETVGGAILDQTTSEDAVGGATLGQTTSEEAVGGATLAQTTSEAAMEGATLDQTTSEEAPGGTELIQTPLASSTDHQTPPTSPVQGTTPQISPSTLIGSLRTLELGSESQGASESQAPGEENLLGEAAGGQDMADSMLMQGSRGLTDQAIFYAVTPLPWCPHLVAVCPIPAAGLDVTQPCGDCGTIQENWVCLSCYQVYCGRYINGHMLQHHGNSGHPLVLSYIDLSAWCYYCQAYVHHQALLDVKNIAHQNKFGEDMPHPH
# EXPERIMENTAL PROTOCOL: HDAC inhibition assay, class II B, fluorogenic peptide RHKK(Ac)AMC
# Assay type: biochemical
# ASSAY SETUP: 10-dose, 3-fold serial dilution; Compound 3 in duplicate starting at 120 µM; read-out: IC50
EXPERIMENTAL ENDPOINT: pIC50
Numbers only, as −log10 of the molar value.

The molecule identified as C=C1CC[C@@H]2O[C@@]2(C)CC[C@H](/C(=C/CC2OC2(C)C)CO)[C@H]1C(=O)OC (relative stereo) [Compound 3] registered its pIC50 at 4.09

---

# TARGET OR TEST SYSTEM: HDAC6 (Homo sapiens)
# EXPERIMENTAL PROTOCOL: HDAC inhibition assay, class II B, fluorogenic peptide RHKK(Ac)AMC
# Format: biochemical
# ASSAY SETUP: as stated in text and legend of Figure 6; read-out: IC50
pIC50: −log10 of the molar value.
EXPERIMENTAL ENDPOINT: pIC50

Given the molecule C=C1CC[C@@H]2O[C@@]2(C)CC[C@H](/C(=C/CC2OC2(C)C)CO)[C@H]1C(=O)OC (relative stereo) [Compound 3] and test system HDAC6 (Homo sapiens), the measured pIC50 is ~4.10
